These entries and their values trace back to PubChem BioAssay AID485273.

Target: Ubiquitin-conjugating enzyme E2 N (Homo sapiens) (UniProt P61088)
Sequence (P61088 whole entry, looked up): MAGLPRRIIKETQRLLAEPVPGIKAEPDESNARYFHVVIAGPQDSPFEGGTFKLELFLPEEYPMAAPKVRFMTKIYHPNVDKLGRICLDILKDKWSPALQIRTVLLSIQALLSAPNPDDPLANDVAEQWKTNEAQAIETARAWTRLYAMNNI
Assay: UBC13 polyubiquitin chain formation inhibitors, primary screen, biochemical, TR-FRET, uHTS (AID 485273)
Settings: at 20 µM
About 1,500 (0.45%) of roughly 330,000 compounds were called active. Cut-off read from the data, not from the text of the source: active = inhibition above about 45% (passing the limit was not always enough); inconclusive = no clear call, values can overlap the other calls. The full list was thinned out, with actives kept by preference.
API: response.call in active, inactive

[Q] Answer briefly: the call reported for C#CCOCCOCCOCCNc1nc(N2CCN(C(=O)[C@H](CCC(=O)O)n3cc(C(N)CO)nn3)CC2)nc(N2CCN(C(=O)[C@H](CCCCN)n3cc(C(N)CC(C)C)nn3)CC2)n1 (some centres not stated) in this assay.
[A] inactive

[Q] Outcome logged for Cc1ccc(Nc2nc(N)nc(CN3CCN(Cc4ccccc4)CC3)n2)cc1Cl in this assay:
[A] inactive

[Q] Outcome? OCCNc1nc(Nc2ccc(Cl)c(Cl)c2)nc2ccccc12
[A] active

[Q] Which outcome was assigned to Cc1ccccc1-n1cc(CNC(=O)C2CCC(=O)N(C3CC3)C2)cn1 (configuration not stated) in this test?
[A] inactive

[Q] Hi, sorry to bother you, what did the test record for O=C(COC(=O)c1ccccn1)NNC(=O)c1ccc(Br)cc1 ?
[A] inactive

[Q] Assay outcome for C#CCOCCOCCOCCNc1nc(N2CCN(C(=O)C([C@@H](C)CC)n3cc(C(N)COC(=O)C(F)(F)F)nn3)CC2)nc(N2CCN(C(=O)[C@H](Cc3ccc(O)cc3)n3cc(C(N)[C@H](C)CC)nn3)CC2)n1 (some centres not stated) : what was it?
[A] inactive

[Q] Which outcome did this test record for the molecule CC(C)Nc1ccc(-n2nc3ccccc3[n+]2[O-])cc1 ?
[A] inactive

[Q] Tell me the recorded outcome of this test for COC(=O)[C@@H](Cc1ccccc1)NC(=O)NCCc1ccccc1 .
[A] inactive

[Q] // param item: COc1ccc(N2CCN(CCNC(=O)Nc3cc(Cl)ccc3Cl)CC2)cc1 ; yields the recorded call
[A] inactive

[Q] Look up the recorded call for C#CCOCCOCCOCCNc1nc(N2CCN(C(=O)[C@H](CCCCN)n3cc(CCC(=O)O)nn3)CC2)nc(N2CCN(C(=O)[C@H](CCCCN)n3cc(CC(C)O)nn3)CC2)n1 (some centres not stated) in this test.
[A] inactive

[Q] Any idea what this test logged for CNc1nc(Nc2ccc(C)c(Cl)c2)nc(N)c1[N+](=O)[O-] ?
[A] inactive

[Q] Record lookup: outcome of this test for COc1ccc2sc(-c3ccc(S(C)(=O)=O)cc3)c(-c3ccc(C(N)=O)cc3)c2c1 ?
[A] inactive

[Q] For this molecule, state the assay outcome: COC(=O)c1ccccc1NC(=O)C1CCN(C(=O)N2CCOc3ccccc32)CC1
[A] inactive

[Q] Which outcome did this test record for the molecule C=CCn1c(SCc2ccc(Cl)c(Cl)c2)nnc1C(CO)NC(=O)c1ccc(OC)cc1 (configuration not stated) ?
[A] inactive

[Q] Query: recorded result category for O=C(CSc1n[nH]c(-c2cccnc2)n1)Nc1ccnc2ccccc12 in this test
[A] inactive

[Q] Each molecule tested received a call. Report the one for OCCn1c(-c2ccccc2)csc1=Nc1ccccc1 .
[A] inactive

[Q] Field: outcome | Entry: CCn1cc(C(=O)NCC(=O)NC(C)(C)CO)c(=O)c2cc3c(cc21)OCO3
[A] inactive
